UniProt O67854: reported pKi for various molecules.
pKi: −log10 of the molar value.
measure: pKi

{"columns": ["entry_smiles", "numeric_readout"],
 "data": [
  ["N[C@@H](Cc1ccc(O)cc1)C(=O)O", 5.04],
  ["CSCC[C@H](N)C(=O)O", 6.63],
  ["NCC(=O)O", 3.49]
]}

----------
# assay_system: LeuT (Aquifex aeolicus, UniProt O67854)
measure: Kd (nM)

{"columns": ["entry_smiles", "assay_system", "units_symbol", "numeric_readout"],
 "data": [
  ["CSCC[C@H](N)C(=O)O", "LeuT (Aquifex aeolicus, UniProt O67854)", "nM", 69]
]}
